I would appreciate it if you labelled entries Met when flash point is 90 °C or higher, otherwise Not met.

Before answering, review these 8 worked examples.
O=C([O-])CN(CCO)CCN(CC(=O)[O-])CC(=O)[O-].[Na+].[Na+].[Na+]; Met
CSC [methylsulfanylmethane]; Not met
CCCCNC1CCCCC1 [N-butylcyclohexanamine]; Met
CCCC(=O)OC(=O)CCC [butanoyl butanoate]; Not met
Clc1cc(Cl)c(Cl)cc1Cl [1,2,4,5-tetrachlorobenzene]; Met
C=C(C)C(=O)OC(C)C [propan-2-yl 2-methylprop-2-enoate]; Not met
C=CC1CO1 (centres undefined) [2-ethenyloxirane]; Not met
C=C(C)C(=O)OC [methyl 2-methylprop-2-enoate]; Not met

Exam item: decide whether the reported flash point for c1ccc(Cc2ccccc2)cc1 [benzylbenzene] is at least 90 °C.
Met

Next up: C1CCNC1 [pyrrolidine]
Not met

Next up: CC(C)CC(C)O (centres undefined) [4-methylpentan-2-ol]
Not met

Next up: CCCCCCCCCC [decane]
Not met

Next up: CC1(C)C(=O)N(Cl)C(=O)N1Cl [1,3-dichloro-5,5-dimethylimidazolidine-2,4-dione]
Met

Next up: CCC(C)Br (centres undefined) [2-bromobutane]
Not met

Next up: CNc1ccccc1 [N-methylaniline]
Not met

Next up: CC(C)C(=O)OCC(C)(C)C(O)C(C)C (centres undefined) [(3-hydroxy-2,2,4-trimethylpentyl) 2-methylpropanoate]
Met

Next up: CCOP(OCC)OCC [triethyl phosphite]
Not met

Next up: Nc1ccccc1C(=O)O [2-aminobenzoic acid]
Met

----------
Class (by flash point) -- group A = under 80 °C, group B = from 80 °C up to 100 °C, group C = 100 °C and over

Before answering, review these 2 worked examples.
S=c1[nH]c2ccccc2s1; group C
c1ccc2c(c1)ccc1ccccc12; group C

For the record `CCCCCCCCCCCCCO` , report the class its flash point corresponds to.
group C

Next up: `O=[N+]([O-])c1cccc(I)c1`
group A

Next up: O=C(O)C(Cl)Br (stereo not given)
group C

Next up: `CN1CCCC1=O`
group B

----------
Each record here notes measured flash point.
Quick note: give the figure in °C, leave out the unit.

Consider the following illustrative entries.
CCSCc1ccccc1OC(=O)NC [[2-(ethylsulfanylmethyl)phenyl] N-methylcarbamate]; 123.00
CC1=Nc2ccc3ccccc3c2C1(C)C [1,1,2-trimethylbenzo[e]indole]; 182.00
OCCCO; 174.00
CCCCCCCCCCCc1ccccc1; 141.00

Continue with the next compound.
Requested read-out: flash point. Entry: CC(O)COC(C)COC(C)CO (stereo not given) [2-[2-(2-hydroxypropoxy)propoxy]propan-1-ol]
141.00

----------
Labelling: flash point reported below 20 °C becomes 1; at or above becomes -1.

Before answering, review these 6 worked examples.
C=COC(=O)CC [vinylpropanoate]; 1
CC=C(CC)CC; 1
Cc1cccc(I)c1; -1
Oc1ccccc1Cl; -1
C=CCSCC=C [diallylsulfide]; -1
CCCCCCCCCCC=O; -1

// switching to the query compound
# TODO verify flash point < 20 °C strictly for this compound: CCCCCCC(C)c1ccccc1 (configuration not stated)
-1

----------
Each record here notes measured flash point.
Quick note: give the figure in °C, leave out the unit.

Consider the following illustrative entries.
CC(C)(OO)c1ccccc1 [2-hydroperoxypropan-2-ylbenzene]; 57.00
O=C(Cl)c1cccc(C(=O)Cl)c1 [benzene-1,3-dicarbonyl chloride]; 180.00
CCCC(=O)O; 77.00
CC1(C)C(C(=O)OC(C#N)c2cccc(Oc3ccccc3)c2)C1C(Br)C(Br)(Br)Br (configuration not stated); 26.00
CC1(N)CCC(C(C)(C)N)CC1 (configuration not stated); 93.00
OC1CCCC1; 51.00
CCCCC#N; 41.00
C=CC(=O)OCCN(CC)CC [2-(diethylamino)ethyl prop-2-enoate]; 91.00

Continue with the next compound.
Requested read-out: flash point. Entry: CC1(C)CC(N)CC(C)(CN)C1 (configuration not stated)
110.00
